# measured.on: T1, human MSLN-FL-his protein (human, UniProt Q13421 296-580)
# T1 construct: made in HEK293E cells, purified on nickel column; also called hMSLN-FL-his; human MSLN full-length protein; not shown: His tag
# method.summary: competitive ELISA; row F1.35.24; also: test concentration or dose not given here
# competition rate listing for each entry below
The reply should be a number in %, with the unit left off.

Worked cases, answers included:
• S009-F2.23.12 (antibody, human IgG1, kappa, V domains shown, human-murine chimeric antibody, human IgG1/kappa constant regions) VH: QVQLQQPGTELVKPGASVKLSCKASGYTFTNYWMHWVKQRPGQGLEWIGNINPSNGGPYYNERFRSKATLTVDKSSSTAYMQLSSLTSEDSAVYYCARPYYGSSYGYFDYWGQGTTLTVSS VL: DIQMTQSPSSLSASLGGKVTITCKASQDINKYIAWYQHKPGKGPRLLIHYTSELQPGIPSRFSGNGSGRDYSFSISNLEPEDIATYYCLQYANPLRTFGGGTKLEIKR = 61
• S009-F2.39.3 (antibody, human IgG1, kappa, V domains shown, human-murine chimeric antibody, human IgG1/kappa constant regions) VH: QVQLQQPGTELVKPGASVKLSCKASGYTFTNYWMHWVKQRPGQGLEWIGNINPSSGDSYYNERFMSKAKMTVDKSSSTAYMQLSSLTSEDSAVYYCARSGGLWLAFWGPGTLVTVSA VL: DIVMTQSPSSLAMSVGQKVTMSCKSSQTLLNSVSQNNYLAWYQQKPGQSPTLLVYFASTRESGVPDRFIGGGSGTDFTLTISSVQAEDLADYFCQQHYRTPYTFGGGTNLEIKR = 47
• S009-F2.16.10 (antibody, human IgG1, kappa, V domains shown, human-murine chimeric antibody, human IgG1/kappa constant regions) VH: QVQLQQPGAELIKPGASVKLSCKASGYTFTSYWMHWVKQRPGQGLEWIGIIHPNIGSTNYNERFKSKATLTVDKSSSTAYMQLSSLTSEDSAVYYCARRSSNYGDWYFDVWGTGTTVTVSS VL: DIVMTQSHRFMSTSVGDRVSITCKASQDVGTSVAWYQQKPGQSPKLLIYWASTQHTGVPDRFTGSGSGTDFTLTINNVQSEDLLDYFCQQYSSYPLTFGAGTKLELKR = -18

Now for another entry.
# competition rate (binder: S009-F1.2.12 (antibody, human IgG1, kappa, V domains shown, human-murine chimeric antibody, human IgG1/kappa constant regions) VH: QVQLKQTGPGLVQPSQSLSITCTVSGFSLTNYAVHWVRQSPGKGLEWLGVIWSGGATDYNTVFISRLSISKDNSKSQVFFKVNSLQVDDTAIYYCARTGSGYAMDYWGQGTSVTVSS VL: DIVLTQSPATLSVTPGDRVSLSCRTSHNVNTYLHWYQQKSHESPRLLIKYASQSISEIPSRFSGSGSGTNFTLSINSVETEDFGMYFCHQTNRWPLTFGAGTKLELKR ) is 4
